Cited source for all entries: patent US20220000967A1

assay: Cell death by Annexin-V-APC/PI flow cytometry; format: cell-based; conditions: MOLT-4, 2h; read-out: cytotoxic concentration that induces around 50% of cell death (CC50)
Assay endpoint: CC50 (µM)

- Molecule: "CSCC[C@H](NC(=O)[C@@H](NC(=O)[C@@H](NC(=O)[C@H](Cc1ccc(O)cc1)NC(=O)[C@H](Cc1ccccc1)NC(=O)[C@H](CCCNC(=N)N)NC(=O)[C@H](N)CCCCN)C(C)C)C(C)C)C(=O)N[C@@H](Cc1c[nH]c2ccccc12)C(=O)N[C@@H](CCCCN)C(=O)N[C@H](CCCCN)C(=O)O [PKHB1, (D)K-R-F-Y-V-V-M-W-K-(D)K]"
  Assay endpoint: "CC50"
  Quantitative readout: 300
